Test system: L1210 leukemia ip in BDF1 mice, survival T/C
Assay Notes: NCI In Vivo Anticancer Drug Screen. Data for tumor model L1210 Leukemia (intraperitoneal) in B6D2F1 (BDF1) mice
Condition Info: endpoint: mean survival time; dose: 10.0 mg/kg/injection; schedule: Q01DX001 (ip); vehicle: saline; higher = longer survival
Toxic doses and inconclusive results are not listed.
What T/C was measured for each of the following?

INSERT INTO assay_data (molecule, measurement_name, value_observed) VALUES
  ('CN(C)N=Nc1c[nH]c(=O)[nH]c1=O', 'T/C', '108 % of control'),
  ('CCCC[P+](CCCC)(CCCC)CCCC', 'T/C', '123 % of control'),
  ('CC(C#N)N(C)C (centres undefined)', 'T/C', '104 % of control');

Now take the following molecule into account.
Look up T/C of C[N+](C)(CCC#N)Cc1ccc(C[N+](C)(C)CCC#N)cc1 and report it. 95 % of control

###

Tested on: L1210 leukemia ip in BDF1 mice, survival T/C
Assay Notes: NCI In Vivo Anticancer Drug Screen. Data for tumor model L1210 Leukemia (intraperitoneal) in B6D2F1 (BDF1) mice
Condition Info: endpoint: mean survival time; dose: 200.0 mg/kg/injection; schedule: Q01DX001 (ip); vehicle: Klucel (hydroxypropylcellulose) (HPC); higher = longer survival
Inconclusive results and toxic doses are left out.
Measurement Name: T/C

Below are worked cases with known answers.
INSERT INTO assay_data (structure, target_entity, measurement_name, value_observed) VALUES
  ('COc1ccccc1-n1c(O)c(N=Nc2ccc(Br)cc2)c(=O)n(-c2ccccc2)c1=S', 'L1210 leukemia ip in BDF1 mice, survival T/C', 'T/C', '121 % of control'),
  ('COc1ccc(-n2c(=O)c(N=Nc3ccccc3C)c(O)n(-c3ccc(Cl)cc3)c2=S)cc1', 'L1210 leukemia ip in BDF1 mice, survival T/C', 'T/C', '102 % of control'),
  ('CSc1cccc(C(=O)O)c1', 'L1210 leukemia ip in BDF1 mice, survival T/C', 'T/C', '102 % of control'),
  ('O=[N+]([O-])c1ccc(NCc2ccccc2O)cc1', 'L1210 leukemia ip in BDF1 mice, survival T/C', 'T/C', '106 % of control'),
  ('Cc1ccc(S(=O)(=O)c2ccc(C)c([N+](=O)[O-])c2)cc1[N+](=O)[O-]', 'L1210 leukemia ip in BDF1 mice, survival T/C', 'T/C', '118 % of control');

Now take the following compound into account.
Look up T/C of CCOC(=O)CCc1cc(C)[nH]c1C(=O)OCC and report it. 93 % of control

###

What T/C was measured for each of the following?
Tested on: L1210 leukemia ip in BDF1 mice, survival T/C
Assay Notes: NCI In Vivo Anticancer Drug Screen. Data for tumor model L1210 Leukemia (intraperitoneal) in B6D2F1 (BDF1) mice
Condition Info: endpoint: mean survival time; dose: 100.0 mg/kg/injection; schedule: Q04DX002 (ip); vehicle: saline with Tween-80; higher = longer survival
Toxic doses and inconclusive results are not listed.

Below are worked cases with known answers.
INSERT INTO results (compound, target_entity, measurement_name, value_observed) VALUES
  ('O=S(=O)(F)c1ccc(Cl)cc1CBr', 'L1210 leukemia ip in BDF1 mice, survival T/C', 'T/C', '107 % of control'),
  ('Cc1ccc(N=Cc2cc(Cl)cc(Cl)c2OC(=O)c2ccccc2)cc1C', 'L1210 leukemia ip in BDF1 mice, survival T/C', 'T/C', '95 % of control'),
  ('CC(C(O)c1ccncc1)[N+](=O)[O-] (configuration not stated)', 'L1210 leukemia ip in BDF1 mice, survival T/C', 'T/C', '92 % of control'),
  ('CCOCCOCCOC(C)Oc1ccc(C(=O)OCC)cc1 (configuration not stated)', 'L1210 leukemia ip in BDF1 mice, survival T/C', 'T/C', '103 % of control'),
  ('COC(=O)C[CH2][Pb]([c]1ccccc1)([c]1ccccc1)[c]1ccccc1', 'L1210 leukemia ip in BDF1 mice, survival T/C', 'T/C', '102 % of control'),
  ('O=S(=O)(CCCl)Cc1ccccc1', 'L1210 leukemia ip in BDF1 mice, survival T/C', 'T/C', '115 % of control'),
  ('C1CCC2C(C1)CCC1C2OCN2CCCCC12 (configuration not stated)', 'L1210 leukemia ip in BDF1 mice, survival T/C', 'T/C', '104 % of control'),
  ('O=C(O)c1cc(=O)n(CCCn2c(=O)cc(C(=O)O)[nH]c2=O)c(=O)[nH]1', 'L1210 leukemia ip in BDF1 mice, survival T/C', 'T/C', '93 % of control'),
  ('CCOC(=O)C1OC12CCC(C(C)(C)C)CC2 (configuration not stated)', 'L1210 leukemia ip in BDF1 mice, survival T/C', 'T/C', '100 % of control'),
  ('O=C(Cc1ccccc1)NCc1ccc(Cl)cc1', 'L1210 leukemia ip in BDF1 mice, survival T/C', 'T/C', '96 % of control');

Need T/C for each of these compounds.
1. CCCCCC#CC(=O)OC(C)C
2. CC(C)CC/C=C/c1ccccc1

1. 102 % of control
2. 92 % of control
